Hi there, I'd appreciate the recorded Ratio IC50 for every entry that follows.
- Assay: Selectivity index, ratio of IC50 for human PTPN1 to IC50 for Mycobacterium tuberculosis PtpB
Give bare numbers.

Smiles str	Ratio IC50
N#Cc1ccc(S(=O)(=O)Nc2ccc(-c3nc4cc(NS(=O)(=O)c5ccc(C#N)cc5)ccc4o3)cc2)cc1	2.3
O=S(=O)(Nc1ccc(-c2nc3cc(NS(=O)(=O)c4ccc(O)cc4)ccc3o2)cc1)c1ccc(O)cc1	2.3
CS(=O)(=O)Nc1ccc(-c2nc3cc(NS(=O)(=O)c4ccc(Cl)s4)ccc3o2)cc1	1.4

Count: 3. Required value per item: Ratio IC50.
1. O=S(=O)(Nc1ccc(-c2nc3cc(NS(=O)(=O)c4cccs4)ccc3o2)cc1)c1cccs1
2. O=S(=O)(Nc1ccc2oc(-c3ccc(NS(=O)(=O)c4cccc5nonc45)cc3)nc2c1)c1ccc(Cl)s1
3. NCc1ccc(S(=O)(=O)Nc2ccc(-c3nc4cc(NS(=O)(=O)c5ccc(Cl)s5)ccc4o3)cc2)cc1

[2.6, 2.5, 6.2]

---

Tyrosine-protein phosphatase non-receptor type 2 (Homo sapiens, UniProt P17706): recorded IC50 for assorted compounds
Sequence (P17706 whole entry): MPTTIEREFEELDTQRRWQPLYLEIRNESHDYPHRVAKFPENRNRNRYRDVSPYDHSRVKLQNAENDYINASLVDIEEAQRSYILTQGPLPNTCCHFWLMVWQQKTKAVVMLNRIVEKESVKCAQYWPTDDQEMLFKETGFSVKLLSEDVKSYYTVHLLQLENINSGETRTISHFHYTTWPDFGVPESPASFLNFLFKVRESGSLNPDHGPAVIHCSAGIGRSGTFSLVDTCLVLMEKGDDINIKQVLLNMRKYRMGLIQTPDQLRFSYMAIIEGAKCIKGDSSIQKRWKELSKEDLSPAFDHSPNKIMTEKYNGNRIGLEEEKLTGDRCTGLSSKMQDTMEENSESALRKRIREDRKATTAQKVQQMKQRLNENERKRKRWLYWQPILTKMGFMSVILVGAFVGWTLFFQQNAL
Numbers only, in µM.

Smiles str	IC50, µM
O=S(=O)(Nc1ccc(-c2nc3ccccc3o2)cc1)c1ccc(F)cc1	76

Hi, could you look up IC50 for each item in my list?
1. O=[N+]([O-])c1cccc(S(=O)(=O)Nc2ccc(-c3nc4cc(NS(=O)(=O)c5cccc([N+](=O)[O-])c5)ccc4o3)cc2)c1
2. NCc1ccc(S(=O)(=O)Nc2ccc3oc(-c4ccc(NS(=O)(=O)c5ccc(Cl)s5)cc4)nc3c2)cc1
3. O=S(=O)(Nc1ccc(-c2nc3cc(NS(=O)(=O)c4ccc(Cl)s4)ccc3o2)cc1)c1ccc(Cl)c(Cl)c1

[29, 61, 12]

---

- Assay: Cytotoxicity against human THLE3 cells assessed as reduction in cell viability after 48 hrs by Alamar blue assay
- Assay type: cell-based
// classify: if (CC50 at 48 h < 80 µM) met else not met

For orientation, consider the following solved cases.
Smiles str	Answer label
COc1ccc(Cl)cc1S(=O)(=O)Nc1ccc2oc(-c3ccccc3)nc2c1	met
O=S(=O)(Nc1ccc(-c2nc3ccccc3o2)cc1)c1cccs1	not met
O=S(=O)(Nc1ccc2oc(-c3ccccc3)nc2c1)c1ccc(O)cc1	not met

Record "O=S(=O)(Nc1ccc2oc(-c3ccccc3)nc2c1)c1ccccc1O" : is its CC50 at 48 h strictly below 80 µM?
met

Lab log: compare recorded CC50 at 48 h with 80 µM; is it strictly lower for "O=S(=O)(Nc1ccc(-c2nc3ccccc3o2)cc1)c1ccccc1Cl" ?
not met

Regarding "O=S(=O)(Nc1ccc(-c2nc3ccccc3o2)cc1)c1ccc(Cl)c(Cl)c1" , kindly confirm whether its CC50 at 48 h is beneath 80 µM.
not met

In plain terms, does "O=S(=O)(Nc1ccc(-c2nc3ccccc3o2)cc1)c1cccc(O)c1" come in under 80 µM for CC50 at 48 h?
not met

Please indicate whether the reported CC50 at 48 h of "O=S(=O)(Nc1ccc(-c2nc3ccccc3o2)cc1)c1ccc(F)cc1" is strictly below 80 µM.
met

Is CC50 at 48 h of "CS(=O)(=O)Nc1ccc(-c2nc3ccccc3o2)cc1" strictly below 80 µM?
not met

Please check: CC50 at 48 h for "Cc1ccccc1S(=O)(=O)Nc1ccc(-c2nc3ccccc3o2)cc1" , strictly under 80 µM or not?
not met

CC50 at 48 h under 80 µM? Item: "CS(=O)(=O)Nc1ccc2oc(-c3ccccc3)nc2c1"
not met

Would you kindly verify if CC50 at 48 h of "O=S(=O)(Nc1ccc(-c2nc3ccccc3o2)cc1)c1ccc(Cl)s1" is strictly less than 80 µM?
not met

hey, is CC50 at 48 h for "C=Cc1ccc(S(=O)(=O)Nc2ccc3oc(-c4ccccc4)nc3c2)cc1" lower than 80 µM or not?
met

---

- Experimental target: Tyrosine-protein phosphatase non-receptor type 1 (Homo sapiens, UniProt P18031)
- Sequence (P18031 whole entry): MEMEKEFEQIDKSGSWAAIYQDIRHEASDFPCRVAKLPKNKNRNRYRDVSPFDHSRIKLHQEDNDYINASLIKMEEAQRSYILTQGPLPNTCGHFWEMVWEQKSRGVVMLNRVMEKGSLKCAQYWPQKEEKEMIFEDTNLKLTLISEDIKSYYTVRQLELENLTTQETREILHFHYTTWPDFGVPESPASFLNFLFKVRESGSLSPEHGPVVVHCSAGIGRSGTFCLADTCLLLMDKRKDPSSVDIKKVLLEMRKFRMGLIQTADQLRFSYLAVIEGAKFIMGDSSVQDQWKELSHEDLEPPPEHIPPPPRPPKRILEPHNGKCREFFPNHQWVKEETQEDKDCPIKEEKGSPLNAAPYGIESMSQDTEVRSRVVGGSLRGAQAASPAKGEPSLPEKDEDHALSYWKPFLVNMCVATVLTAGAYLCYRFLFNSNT
- Assay: Inhibition of human PTPN1 expressed in Escherichia coli Rosetta 2 (DE3) using pNPP as substrate after 45 mins by spectrophotometric method
Please respond with reported IC50 for every item in the list.

# return IC50 for each item in the list
1. CS(=O)(=O)Nc1ccc2oc(-c3ccccc3)nc2c1
2. CS(=O)(=O)Nc1ccc(-c2nc3cc(NS(C)(=O)=O)ccc3o2)cc1

1: > 100 µM; 2: > 100 µM

Please report the measured IC50 for "O=S(=O)(Nc1ccc2oc(-c3ccccc3)nc2c1)c1cccs1" tested on Tyrosine-protein phosphatase non-receptor type 1 (Homo sapiens, UniProt P18031).
> 100 µM

---

- Experimental target: Tyrosine-protein phosphatase non-receptor type 2 (Homo sapiens)
- Assay: Inhibition of human PTPN2 expressed in Escherichia coli Rosetta 2 (DE3) using pNPP as substrate after 45 mins by spectrophotometric method
// returns False unless IC50 is strictly below 40 µM, in which case True

Smiles str	Answer label
O=S(=O)(Nc1ccc2oc(-c3ccccc3)nc2c1)c1cccs1	False
NCc1ccc(S(=O)(=O)Nc2ccc(-c3nc4cc(NS(=O)(=O)c5ccc(Cl)s5)ccc4o3)cc2)cc1	False

Below 40 µM on IC50? Entry "O=S(=O)(Nc1ccc(-c2nc3cc(NS(=O)(=O)c4ccccc4F)ccc3o2)cc1)c1ccccc1F"
True

Is IC50 strictly under 40 µM for the entry "O=S(=O)(Nc1ccc(-c2nc3cc(NS(=O)(=O)c4ccc(Cl)s4)ccc3o2)cc1)c1ccc2ccccc2c1" ?
True

---

Lab note: pIC50 readings collected with Tyrosine-protein phosphatase non-receptor type 1 (Homo sapiens, UniProt P18031) for the following compounds.
Numbers only, as −log10 of the molar value.

Recorded pIC50, per entry:
Smiles str	Recorded measurement
COc1ccc(S(=O)(=O)Nc2ccc3oc(-c4ccccc4)nc3c2)cc1	4.34
O=S(=O)(Nc1ccc(-c2nc3ccccc3o2)cc1)c1ccc(O)cc1	4.15
O=c1ccc2cc(S(=O)(=O)Nc3ccc(-c4nc5cc(NS(=O)(=O)c6ccc(Cl)s6)ccc5o4)cc3)ccc2o1	5.08

Answer briefly: pIC50 recorded on Tyrosine-protein phosphatase non-receptor type 1 (Homo sapiens, UniProt P18031) for "O=S(=O)(Nc1ccc(-c2nc3ccccc3o2)cc1)c1cccc(Cl)c1"
4.43

---

- Experimental target: Malate dehydrogenase, mitochondrial (Sus scrofa, UniProt P00346)
- Sequence (P00346 whole entry): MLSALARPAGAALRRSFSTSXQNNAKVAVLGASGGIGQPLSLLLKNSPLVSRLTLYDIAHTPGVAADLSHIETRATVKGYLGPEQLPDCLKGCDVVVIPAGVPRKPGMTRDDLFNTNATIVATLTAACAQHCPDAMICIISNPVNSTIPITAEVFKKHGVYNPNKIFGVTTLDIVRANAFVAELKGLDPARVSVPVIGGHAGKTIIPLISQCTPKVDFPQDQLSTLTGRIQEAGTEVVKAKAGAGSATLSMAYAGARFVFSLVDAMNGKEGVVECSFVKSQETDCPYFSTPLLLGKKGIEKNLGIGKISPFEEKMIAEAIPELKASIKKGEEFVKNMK
Reported metric: IC50

Please review the entries below; each comes with its answer.
Smiles str	IC50
O=S(=O)(Nc1ccc(-c2nc3ccccc3o2)cc1)c1ccc(Cl)c(C(F)(F)F)c1	> 63 µM
O=S(=O)(Nc1ccc2oc(-c3ccccc3)nc2c1)c1ccccc1F	> 63 µM

The record that follows has no IC50 shown yet.
Give Malate dehydrogenase, mitochondrial (Sus scrofa, UniProt P00346) IC50 for the following compound: "O=S(=O)(Nc1ccc(-c2nc3ccccc3o2)cc1)c1ccc(Cl)cc1"
> 63 µM

---

- Experimental target: Phosphotyrosine protein phosphatase (Mycobacterium tuberculosis)
- Sequence (A0A045ISB3 whole entry): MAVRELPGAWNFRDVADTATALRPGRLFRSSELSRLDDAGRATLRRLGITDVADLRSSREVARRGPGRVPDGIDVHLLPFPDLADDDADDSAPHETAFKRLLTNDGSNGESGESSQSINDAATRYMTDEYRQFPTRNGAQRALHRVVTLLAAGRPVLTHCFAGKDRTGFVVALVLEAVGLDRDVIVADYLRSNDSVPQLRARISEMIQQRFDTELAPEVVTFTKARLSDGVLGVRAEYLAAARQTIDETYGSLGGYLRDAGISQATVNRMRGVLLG
- Assay: Inhibition of Mycobacterium tuberculosis His-tagged PtpB expressed in Escherichia coli Rosetta 2 (DE3) using pNPP as substrate after 30 mins by spectrophotometric method
Reported metric: IC50

Smiles str	IC50
O=S(=O)(Nc1ccc(-c2nc3ccccc3o2)cc1)c1ccc(F)c(C(F)(F)F)c1	36 µM
O=S(=O)(Nc1ccc2oc(-c3ccccc3)nc2c1)c1ccc(Cl)cc1	56 µM

Record IC50 for all entries; do not skip any.
1. Cc1ccc(S(=O)(=O)Nc2ccc3oc(-c4ccccc4)nc3c2)cc1
2. O=S(=O)(Nc1ccc(-c2nc3cc(NS(=O)(=O)c4cccs4)ccc3o2)cc1)c1cccs1
3. O=S(=O)(Nc1ccc(-c2nc3ccccc3o2)cc1)c1ccc(Cl)s1
4. O=S(=O)(Nc1ccc2oc(-c3ccccc3)nc2c1)c1ccccc1O
5. O=S(=O)(Nc1ccc2oc(-c3ccccc3)nc2c1)c1ccc(C(F)(F)F)cc1
6. O=S(=O)(Nc1ccc(-c2nc3cc(NS(=O)(=O)c4ccccc4Br)ccc3o2)cc1)c1ccccc1Br
7. O=c1ccc2cc(S(=O)(=O)Nc3ccc(-c4nc5cc(NS(=O)(=O)c6ccc7oc(=O)ccc7c6)ccc5o4)cc3)ccc2o1

68 µM
12 µM
32 µM
98 µM
26 µM
20 µM
8.7 µM

The origin of these recorded values is ChEMBL document CHEMBL4387722.
